target: panel of more than 300 wild-type and mutant kinases (313 kinase panel) (Homo sapiens, UniProt P30291); test: Kinase profiling in a biochemical assay panel (mobility shift assays and ELISA), %-inhibition at 1 μM; selectivity entropy; settings: kinase WEE1; compound at 1 μM
Sequence (P30291 whole entry, change not shown): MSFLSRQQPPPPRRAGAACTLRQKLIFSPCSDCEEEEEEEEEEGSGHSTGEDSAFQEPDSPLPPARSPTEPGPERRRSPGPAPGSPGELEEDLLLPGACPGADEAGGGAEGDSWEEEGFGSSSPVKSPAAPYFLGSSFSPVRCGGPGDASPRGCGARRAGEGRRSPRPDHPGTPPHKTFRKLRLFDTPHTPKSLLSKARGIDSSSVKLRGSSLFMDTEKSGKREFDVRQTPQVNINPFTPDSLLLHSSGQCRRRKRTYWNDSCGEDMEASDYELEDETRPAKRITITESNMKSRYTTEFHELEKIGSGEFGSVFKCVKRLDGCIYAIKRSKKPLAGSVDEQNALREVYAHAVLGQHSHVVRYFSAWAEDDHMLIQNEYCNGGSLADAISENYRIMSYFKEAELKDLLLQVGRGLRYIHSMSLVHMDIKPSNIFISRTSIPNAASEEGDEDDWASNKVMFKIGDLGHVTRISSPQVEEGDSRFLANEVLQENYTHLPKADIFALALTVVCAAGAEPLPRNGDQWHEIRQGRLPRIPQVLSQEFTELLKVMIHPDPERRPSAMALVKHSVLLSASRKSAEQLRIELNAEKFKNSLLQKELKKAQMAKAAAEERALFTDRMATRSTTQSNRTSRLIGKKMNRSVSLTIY
# %-inhibition of WEE1 per record follows
Please give a number only; it is taken to be in %.

# query: %-inhibition of WEE1 of entry `CO[C@H]1C[C@@H]2CC[C@@H](C)[C@@](O)(O2)C(=O)C(=O)N2CCCC[C@H]2C(=O)O[C@H]([C@H](C)C[C@@H]2CC[C@@H](OC(=O)C(C)(CO)CO)[C@H](OC)C2)CC(=O)[C@H](C)/C=C(\C)[C@@H](O)[C@@H](OC)C(=O)[C@H](C)C[C@H](C)/C=C/C=C/C=C/1C`
4.25

# query: %-inhibition of WEE1 of entry `CO[C@H]1C[C@@H]2CC[C@@H](C)[C@@](O)(O2)C(=O)C(=O)N2CCCC[C@H]2C(=O)O[C@H]([C@H](C)C[C@@H]2CC[C@@H](OCCO)[C@H](OC)C2)CC(=O)[C@H](C)/C=C(\C)[C@@H](O)[C@@H](OC)C(=O)[C@H](C)C[C@H](C)/C=C/C=C/C=C/1C`
7

# query: %-inhibition of WEE1 of entry `CC(C)(C)c1nc(-c2cccc(NS(=O)(=O)c3c(F)cccc3F)c2F)c(-c2ccnc(N)n2)s1`
0.651

# query: %-inhibition of WEE1 of entry `C[C@@H](Oc1cc(-c2cnn(C3CCNCC3)c2)cnc1N)c1c(Cl)ccc(F)c1Cl`
12

# query: %-inhibition of WEE1 of entry `CNC(=O)c1cc(Oc2ccc(NC(=O)Nc3ccc(Cl)c(C(F)(F)F)c3)c(F)c2)ccn1`
4.42

# query: %-inhibition of WEE1 of entry `Cc1ccc(Nc2nccc(N(C)c3ccc4c(C)n(C)nc4c3)n2)cc1S(N)(=O)=O`
1

* * *

molecular target: panel of more than 300 wild-type and mutant kinases (313 kinase panel) (Homo sapiens); assay: Kinase profiling in a biochemical assay panel (mobility shift assays and ELISA), %-inhibition at 1 μM; selectivity entropy; details: kinase PKD2; 1 μM
# %-inhibition of PKD2 per record follows
Please give a number only; it is taken to be in %.

- COMPOUND: "CNC(=O)c1cc(Oc2ccc(NC(=O)Nc3ccc(Cl)c(C(F)(F)F)c3)c(F)c2)ccn1"
  TARGET_OR_SYSTEM: "panel of more than 300 wild-type and mutant kinases (313 kinase panel) (Homo sapiens)"
  %-inhibition of PKD2, %: -18
- COMPOUND: "COc1cc2nccc(Oc3ccc(NC(=O)C4(C(=O)Nc5ccc(F)cc5)CC4)cc3)c2cc1OC [cabozantinib]"
  TARGET_OR_SYSTEM: "panel of more than 300 wild-type and mutant kinases (313 kinase panel) (Homo sapiens)"
  %-inhibition of PKD2, %: -11

Kindly state the measured %-inhibition of PKD2 obtained for `Cc1ccc(C(=O)Nc2ccc(CN3CCN(C)CC3)c(C(F)(F)F)c2)cc1C#Cc1cnc2cccnn12` with panel of more than 300 wild-type and mutant kinases (313 kinase panel) (Homo sapiens).
9.48

Kindly state the measured %-inhibition of PKD2 obtained for `CCCS(=O)(=O)Nc1ccc(F)c(C(=O)c2c[nH]c3ncc(-c4ccc(Cl)cc4)cc23)c1F` with panel of more than 300 wild-type and mutant kinases (313 kinase panel) (Homo sapiens).
-13
